- testedSystem: Axl (Homo sapiens (Human), UniProt P30530)
- Sequence (P30530 26-894): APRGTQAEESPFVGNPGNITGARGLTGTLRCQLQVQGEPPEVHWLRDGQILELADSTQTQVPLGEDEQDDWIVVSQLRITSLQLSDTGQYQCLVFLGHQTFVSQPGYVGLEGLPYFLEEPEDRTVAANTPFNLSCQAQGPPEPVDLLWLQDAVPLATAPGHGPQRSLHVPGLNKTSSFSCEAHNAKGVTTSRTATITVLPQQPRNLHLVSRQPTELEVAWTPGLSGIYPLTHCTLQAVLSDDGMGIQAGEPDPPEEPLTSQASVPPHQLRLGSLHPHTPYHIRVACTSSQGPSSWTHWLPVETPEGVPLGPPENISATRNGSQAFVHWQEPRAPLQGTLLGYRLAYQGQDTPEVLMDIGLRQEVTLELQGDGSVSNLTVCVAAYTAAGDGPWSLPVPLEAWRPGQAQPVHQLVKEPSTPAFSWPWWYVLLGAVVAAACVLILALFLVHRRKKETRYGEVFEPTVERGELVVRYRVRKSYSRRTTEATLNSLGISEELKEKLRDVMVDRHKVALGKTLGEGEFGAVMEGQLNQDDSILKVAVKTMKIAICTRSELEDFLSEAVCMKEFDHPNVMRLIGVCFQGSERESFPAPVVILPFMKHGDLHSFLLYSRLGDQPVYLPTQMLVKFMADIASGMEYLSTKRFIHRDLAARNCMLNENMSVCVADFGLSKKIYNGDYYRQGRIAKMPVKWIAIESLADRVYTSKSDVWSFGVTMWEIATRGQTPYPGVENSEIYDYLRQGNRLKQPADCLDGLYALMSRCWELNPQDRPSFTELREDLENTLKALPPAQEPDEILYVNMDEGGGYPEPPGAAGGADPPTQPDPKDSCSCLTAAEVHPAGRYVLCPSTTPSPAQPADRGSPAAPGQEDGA
- experimentSummary: Phospho-Akt in-cell Western assay (Axl-antibody cross-linking stimulation)
- Type: cell-based
- conditionSet: inhibition of Axl activity, phospho-Akt in-cell Western assay
readout: IC50

- Nc1nc(Nc2ccc(N3CCN([C@H]4CC5CCC4C5)CC3)c(F)c2)nn1-c1cc(-c2ccccc2)ccn1 (stereo partly shown) [Compound 230]: 1000 to 10000 nM
- Cc1csc2c(-n3nc(Nc4ccc(N5CCN([C@H]6CC7CCC6C7)CC5)cc4)nc3N)nc(-c3ccc4c(c3)OCO4)nc12 (stereo partly shown) [Compound 236]: > 20000 nM
- Cc1cc(Nc2nc(N)n(-c3ncnc4c(C)csc34)n2)ccc1N1CCN(C2CC3CCC2C3)CC1 (stereo not shown) [Compound 199]: < 1000 nM
- Cc1cc(Nc2nc(N)n(-c3nnc(C)c4ccsc34)n2)ccc1N1CCN([C@H]2C[C@@H]3CC[C@H]2C3)CC1 [Compound 232]: < 1000 nM
- Cc1csc2c(-n3nc(Nc4ccc(N5CCN([C@H]6CC7CCC6C7)CC5)cc4)nc3N)nc(/C=C/CN3CCOCC3)nc12 (stereo partly shown) [Compound 241]: 1000 to 10000 nM
- Nc1nc(Nc2ccc(N3CCN(C4CC5CCC4C5)CC3)cc2)nn1-c1nc(C(F)(F)F)nc2ccccc12 (stereo not shown) [Compound 136]: 1000 to 10000 nM
- COc1cc2ncnc(-n3nc(Nc4ccc(N5CCN(C(C)=O)CC5)cc4)nc3N)c2cc1OC [Compound 107]: < 1000 nM

====

- testedSystem: Axl (Homo sapiens (Human), UniProt P30530)
- experimentSummary: Phospho-Akt in-cell Western assay (Axl-antibody cross-linking stimulation)
- Type: cell-based
- conditionSet: inhibition of Axl activity, phospho-Akt in-cell Western assay
readout: IC50

- Cc1cc(Nc2nc(N)n(-c3ncnc4c(C)csc34)n2)ccc1N1CCN([C@H]2C[C@@H]3CC[C@H]2C3)[C@@H](C)C1 [Compound 253]: < 1000 nM
- COc1cc2ncnc(-n3nc(Nc4ccc(N5CCN(C6CCCCCC6)CC5)cc4)nc3N)c2cc1OC [Compound 110]: < 1000 nM
- CN1CCN(c2ccc(Nc3nc(N)n(-c4nccc5ccccc45)n3)cc2F)CC1 [Compound 90]: < 1000 nM
- Cc1csc2c(-n3nc(Nc4ccc(N5CCN([C@H]6C[C@@H]7CC[C@H]6C7)[C@@H](C)C5)c(F)c4)nc3N)ncnc12 [Compound 251]: < 1000 nM

====

- testedSystem: Axl (Homo sapiens (Human), UniProt P30530)
- experimentSummary: Phospho-Akt in-cell Western assay (Axl-antibody cross-linking stimulation)
- Assay type: cell-based
- conditionSet: inhibition of Axl activity, Hela cells, phospho-Akt readout; Table 1, formula (Ia1)
readout: IC50

* Nc1nc(Nc2ccc(OCCN3CCCC3)cc2)nn1-c1ncccn1 | > 20000 nM
* Nc1nc(Nc2ccc(OCCN3CCCC3)cc2)nn1-c1nc2ccccc2s1 | > 20000 nM
* Nc1nc(Nc2ccc(OCCN3CCCC3)cc2)nn1-c1nccc2occc12 | < 1000 nM
* Nc1nc(Nc2ccc(OCCN3CCCC3)cc2)nn1-c1nc(Cl)nc2c1CCC2 | < 1000 nM
* Nc1nc(Nc2ccc(OCCN3CCCCC3)cc2)nn1-c1cccc(Cl)n1 | < 1000 nM
* COc1cc2c(-n3nc(Nc4ccc(OCCN5CCCC5)cc4)nc3N)ncnc2cc1OCc1ccccc1 | > 20000 nM
* Nc1nc(Nc2ccc(OCCN3CCCC3)cc2)nn1-c1ncnc2cc(-c3ccccc3)sc12 | < 1000 nM
* Nc1nc(Nc2ccc(OCCN3CCCC3)c(F)c2)nn1-c1ncnc2sc3c(c12)CCCC3 | < 1000 nM

====

# IC50 per record follows
- testedSystem: Axl (Homo sapiens (Human))
- experimentSummary: Phospho-Akt in-cell Western assay (Axl-antibody cross-linking stimulation)
- Assay type: cell-based
- conditionSet: inhibition of Axl activity, phospho-Akt in-cell Western assay
readout: IC50

• C[C@H]1CN(c2ccc(Nc3nc(N)n(-c4ncnc5ccsc45)n3)cc2F)CCN1[C@H]1C[C@@H]2CC[C@H]1C2 [Compound 255] = < 1000 nM
• Nc1nc(Nc2ccc(N3CCN(C4CCCCC4)CC3)c(Cl)c2)nn1-c1nccc2ccccc12 [Compound 91] = < 1000 nM
• COc1cc2ncnc(-n3nc(Nc4ccc(Cl)c(N5CCN(C(C)=O)CC5)c4)nc3N)c2cc1OC [Compound 120] = > 20000 nM
• COc1cc2ccnc(-n3nc(Nc4ccc(N5CCN(C6CC7CCC6C7)CC5)cc4)nc3N)c2cc1OC (stereo not shown) [Compound 125] = < 1000 nM
• CC(=O)N1CCN(c2ccc(Nc3nc(N)n(-c4nccc5ccccc45)n3)cc2)CC1 [Compound 88] = 1000 to 10000 nM
• Cc1csc2c(-n3nc(Nc4ccc(N5CCN(C6CC7CCC6C7)CC5)c(F)c4)nc3N)ncnc12 (stereo not shown) [Compound 194] = < 1000 nM
• COc1cc2ncnc(-n3nc(Nc4ccc(N5CCN(C6CC7CCC6C7)CC5)cc4)nc3N)c2cc1OC (stereo not shown) [Compound 98] = < 1000 nM

====

- testedSystem: Axl (Homo sapiens (Human))
- experimentSummary: Phospho-Akt in-cell Western assay (Axl-antibody cross-linking stimulation)
- Format: cell-based
- conditionSet: inhibition of Axl activity, phospho-Akt in-cell Western assay
readout: IC50

* Cc1csc2c(-n3nc(Nc4ccc(N5CCN(C6CC7CCC6C7)[C@H](C)C5)c(F)c4)nc3N)ncnc12 (stereo partly shown) | < 1000 nM
* CN1CCN(c2ccc(Nc3nc(N)n(-c4ncnc5cc(O)c(O)cc45)n3)cc2F)CC1 | 1000 to 10000 nM
* Nc1nc(Nc2ccc(N3CCN(C4CC5CCC4C5)CC3)cc2)nn1-c1cnc2ccccc2n1 (stereo not shown) | 1000 to 10000 nM
* Cc1cc(N2CCN(C3CC4CCC3C4)CC2)ccc1Nc1nc(N)n(-c2ncnc3c(C)csc23)n1 (stereo not shown) | < 1000 nM
* Cc1csc2c(-n3nc(Nc4ccc(N5CCN([C@H]6C[C@@H]7CC[C@H]6C7)[C@H](C)C5)c(F)c4)nc3N)ncnc12 | < 1000 nM
* Nc1nc(Nc2ccc(N3CCN(C4CC5CCC4C5)CC3)cc2)nn1-c1ncnc2ccsc12 (stereo not shown) | < 1000 nM
* Cc1cc(Nc2nc(N)n(-c3ncnc4c(C)csc34)n2)ccc1N1CCN([C@H]2C[C@@H]3CC[C@H]2C3)[C@H](C)C1 | < 1000 nM
* Cc1csc2c(-n3nc(Nc4ccc(N5CCN([C@H]6CC7CCC6C7)CC5)cc4)nc3N)nc(C=CCN3CCCC3)nc12 (stereo partly shown) | 1000 to 10000 nM
* Cc1nnc(-n2nc(Nc3ccc(N4CCN([C@H]5C[C@@H]6CC[C@H]5C6)CC4)c(F)c3)nc2N)c2sccc12 | < 1000 nM
* Cc1cc(Nc2nc(N)n(-c3nnc(C)c4ccsc34)n2)ccc1N1CCN(C2CC3CCC2C3)CC1 (stereo not shown) | < 1000 nM
* Cc1csc2c(-n3nc(Nc4ccc(N5CCN([C@H]6CC7CCC6C7)CC5)cc4)nc3N)nc(-c3cccc(NS(C)(=O)=O)c3)nc12 (stereo partly shown) | 1000 to 10000 nM
* CN1CCN(c2ccc(Nc3nc(N)n(-c4cc5c(nn4)-c4ccccc4CC5)n3)cc2)CC1 | < 1000 nM
* Cc1sc2ncnc(-n3nc(Nc4ccc(N5CCN(C6CC7CCC6C7)CC5)cc4)nc3N)c2c1C (stereo not shown) | 1000 to 10000 nM
* Cc1csc2c(-n3nc(Nc4ccc(C5CCN(C6CC7CCC6C7)CC5)cc4)nc3N)nc(Cl)nc12 (stereo not shown) | < 1000 nM
* Cc1csc2ncnc(-n3nc(Nc4ccc(N5CCN([C@H]6C[C@@H]7CC[C@H]6C7)CC5)cc4)nc3N)c12 | 1000 to 10000 nM
* COc1cc2c(-n3nc(Nc4ccc(N5CCN(C6CCCCCC6)CC5)cc4)nc3N)ncnc2cc1O | < 1000 nM
* Nc1nc(Nc2ccc(N3CCN(C4CC5CCC4C5)CC3)c(F)c2)nn1-c1ncnc2ccc(F)cc12 (stereo not shown) | < 1000 nM
* COc1cc2cnc(-n3nc(Nc4ccc(N5CCN([C@H]6C[C@@H]7CC[C@H]6C7)CC5)cc4)nc3N)nc2cc1OC (racemic) | > 20000 nM
* Cc1csc2c(-n3nc(Nc4ccc(N5CCN([C@H]6CC7CCC6C7)CC5)cc4)nc3N)nc(-c3ccncc3)nc12 (stereo partly shown) | < 1000 nM
* Nc1nc(Nc2ccc(N3CCN(C4CC5CCC4C5)CC3)cc2)nn1-c1ncnc2scc(-c3cccs3)c12 (stereo not shown) | > 20000 nM
* Cc1cc(Nc2nc(N)n(-c3ncnc4c(C)csc34)n2)ccc1N1CCN([C@H]2C[C@@H]3CC[C@H]2C3)CC1 | < 1000 nM
* Cc1nnc(-n2nc(Nc3ccc(N4CCN(C5CC6CCC5C6)CC4)c(F)c3)nc2N)c2sccc12 (stereo not shown) | < 1000 nM
* Nc1nc(Nc2ccc(N3CCN(C4CC5CCC4C5)CC3)cc2)nn1-c1nccc2occc12 (stereo not shown) | < 1000 nM
* COc1cc2ncnc(-n3nc(Nc4ccc(N5CCN(C6CC7CCCC76)CC5)cc4)nc3N)c2cc1OC (stereo not shown) | > 20000 nM
* Nc1nc(Nc2ccc(N3CCN([C@H]4C[C@@H]5CC[C@H]4C5)CC3)cc2)nn1-c1ncnc2ccsc12 | < 1000 nM
* COc1cc2c(C)nnc(-n3nc(Nc4ccc(N5CCN([C@H]6C[C@@H]7CC[C@H]6C7)CC5)c(F)c4)nc3N)c2cc1OC | > 20000 nM
* Nc1nc(Nc2ccc(N3CCN(C4CC5CCC4C5)CC3)cc2)nn1-c1ncnc2cc(-c3ccc(Cl)cc3)sc12 (stereo not shown) | > 20000 nM
* Nc1nc(Nc2ccc(N3CCN([C@H]4C[C@@H]5CC[C@H]4C5)CC3)c(Cl)c2)nn1-c1ncnc2sccc12 | < 1000 nM

Where do the numbers come from? From patent US10166216B2.
